viability, T/C: recorded values
System: 276233-004-R-J1-PDC KRAS spheroids with HUVEC/MSC, viability
Assay: Anticancer human tumor 276233-004-R-J1-PDC patient-derived colon adenocarcinoma cell line growth inhibition [KRAS2]
Details: second compound 0.316 µM; first compound 1 µM; active compounds read low
Field: numeric (%). Do not append units.

Exercise: Please indicate recorded viability, T/C of CC(C)NCC(C(=O)N1CCN(c2ncnc3c2C(C)CC3O)CC1)c1ccc(Cl)cc1 (stereo not given) + CC1OCC2(CCN(c3cnc(Sc4ccnc(N)c4Cl)c(N)n3)CC2)C1N measured with 276233-004-R-J1-PDC KRAS spheroids with HUVEC/MSC, viability.
Key: 52.8

###

Tested on: 276233-004-R-J1-PDC KRAS spheroids with HUVEC/MSC, viability
Experiment: Anticancer human tumor 276233-004-R-J1-PDC cell line growth inhibition [KRAS2];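 note: cells exposed to agents for seven days before viability read; 100% = DMSO vehicle control wells and lower values mean fewer viable cells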
Conditions: second compound 0.1 µM; first compound 1 µM; active compounds read low
Property Name: viability, T/C (%)
Field: numeric (%). Do not append units.

Compound	viability, T/C / %
CCNC(=O)CC1N=C(c2ccc(Cl)cc2)c2cc(OC)ccc2-n2c(C)nnc21 (stereo not given) + CC1OCC2(CCN(c3cnc(Sc4ccnc(N)c4Cl)c(N)n3)CC2)C1N	66.8

Exercise: Please indicate recorded viability, T/C of COC(=O)c1ccc2c(C(=Nc3ccc(N(C)C(=O)CN4CCN(C)CC4)cc3)c3ccccc3)c(O)[nH]c2c1 + CC1OCC2(CCN(c3cnc(Sc4ccnc(N)c4Cl)c(N)n3)CC2)C1N measured with 276233-004-R-J1-PDC KRAS spheroids with HUVEC/MSC, viability.
Key: 64.6

Exercise: Please indicate recorded viability, T/C of CC(C)NCC(C(=O)N1CCN(c2ncnc3c2C(C)CC3O)CC1)c1ccc(Cl)cc1 (stereo not given) + C=CC(=O)N1CCN(c2nc(=O)n(-c3c(C)ccnc3C(C)C)c3nc(-c4c(O)cccc4F)c(F)cc23)C(C)C1 measured with 276233-004-R-J1-PDC KRAS spheroids with HUVEC/MSC, viability.
Key: 74.2

Exercise: Please indicate recorded viability, T/C of CC1(C)CCC(CN2CCN(c3ccc(C(=O)NS(=O)(=O)c4ccc(NCC5CCOCC5)c([N+](=O)[O-])c4)c(Oc4cnc5[nH]ccc5c4)c3)CC2)=C(c2ccc(Cl)cc2)C1 + COc1cc2nc(C)nc(NC(C)c3cc(N)cc(C(F)(F)F)c3)c2cc1OC1CCOC1 measured with 276233-004-R-J1-PDC KRAS spheroids with HUVEC/MSC, viability.
Key: 95.5

Exercise: Please indicate recorded viability, T/C of CC1(C)CCC(CN2CCN(c3ccc(C(=O)NS(=O)(=O)c4ccc(NCC5CCOCC5)c([N+](=O)[O-])c4)c(Oc4cnc5[nH]ccc5c4)c3)CC2)=C(c2ccc(Cl)cc2)C1 + CC1OCC2(CCN(c3cnc(Sc4ccnc(N)c4Cl)c(N)n3)CC2)C1N measured with 276233-004-R-J1-PDC KRAS spheroids with HUVEC/MSC, viability.
Key: 116

###

Tested on: 276233-004-R-J1-PDC KRAS spheroids with HUVEC/MSC, viability
Experiment: Anticancer human tumor 276233-004-R-J1-PDC cell line growth inhibition [KRAS2];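 note: cells exposed to agents for seven days before viability read; 100% = DMSO vehicle control wells and lower values mean fewer viable cells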
Details: second compound 3.16 µM; first compound 1 µM; active compounds read low
viability, T/C: recorded values
Field: numeric (%). Do not append units.

Exercise: Please indicate recorded viability, T/C of COc1cc(Nc2ncc3c(n2)-c2ccc(Cl)cc2C(c2c(F)cccc2OC)=NC3)ccc1C(=O)O + COc1cc2nc(C)nc(NC(C)c3cc(N)cc(C(F)(F)F)c3)c2cc1OC1CCOC1 measured with 276233-004-R-J1-PDC KRAS spheroids with HUVEC/MSC, viability.
Key: 54.1

Exercise: Please indicate recorded viability, T/C of CC1(C)CCC(CN2CCN(c3ccc(C(=O)NS(=O)(=O)c4ccc(NCC5CCOCC5)c([N+](=O)[O-])c4)c(Oc4cnc5[nH]ccc5c4)c3)CC2)=C(c2ccc(Cl)cc2)C1 + COc1cc2nc(C)nc(NC(C)c3cc(N)cc(C(F)(F)F)c3)c2cc1OC1CCOC1 measured with 276233-004-R-J1-PDC KRAS spheroids with HUVEC/MSC, viability.
Key: 103

Exercise: Please indicate recorded viability, T/C of CCN1CCN(Cc2ccc(Nc3ncc(F)c(-c4cc(F)c5nc(C)n(C(C)C)c5c4)n3)nc2)CC1 + C=CC(=O)N1CCN(c2nc(OCC3CCCN3C)nc3c2CCN(c2cccc4cccc(C)c24)C3)CC1CC#N measured with 276233-004-R-J1-PDC KRAS spheroids with HUVEC/MSC, viability.
Key: 26.5

Exercise: Please indicate recorded viability, T/C of COC(=O)c1ccc2c(C(=Nc3ccc(N(C)C(=O)CN4CCN(C)CC4)cc3)c3ccccc3)c(O)[nH]c2c1 + C=CC(=O)N1CCN(c2nc(OCC3CCCN3C)nc3c2CCN(c2cccc4cccc(C)c24)C3)CC1CC#N measured with 276233-004-R-J1-PDC KRAS spheroids with HUVEC/MSC, viability.
Key: 26.9

Exercise: Please indicate recorded viability, T/C of CCN1CCN(Cc2ccc(Nc3ncc(F)c(-c4cc(F)c5nc(C)n(C(C)C)c5c4)n3)nc2)CC1 + CNCc1ccccc1-c1csc(C(C)Nc2nc(C)nc3cc(OC)c(OC)cc23)c1 measured with 276233-004-R-J1-PDC KRAS spheroids with HUVEC/MSC, viability.
Key: 0.72
